Source of measurements: PubChem BioAssay

# Tested on: Sam68 (KHDRBS1)
# TEST SUMMARY: Sam68 small-molecule binders, primary screen, biochemical, small-molecule microarray, 635 nm fluorescence (AID 1125);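 note: score merges 667 nm channel intensity with signal to noise over triplicate slides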
# CONDITION SUMMARY: small-molecule microarray binding, higher = more signal
ENDPOINT LABEL: composite z-score
Form: value (number only, do not type unit).

# count of solved cases: 5
| COMPOUND | composite z-score |
| --- | --- |
| NC(N)=NCc1cn(CCc2c[nH]c3ccccc23)nn1 | 0.714 |
| COc1ccc([Si](C)(C)[C@@H]2[C@@H](CCn3cc([C@H](O)c4ccccc4)nn3)O[C@]3(C(=O)N(Cc4ccc(N5CCOC5=O)cc4)c4ccccc43)[C@H]2C)cc1 | 1.09 |
| CC(C)OC(=O)CC(=O)CC(O)c1cccc(C#N)c1 (stereo not drawn) | 1.35 |
| COC(=O)[C@@]1(Cc2ccccc2)[C@H]2c3cc(C(=O)N4CCCC4)[nH]c3C[C@H]2CN1C(=O)c1ccccc1 | -1.81 |
| CCOc1cc(C(O)C2C=CC3C(=O)N(C)C(=O)C3N2N2CCCCC2)ccc1O (stereo not drawn) | 0.0667 |

Exercise: Entry `O=c1cccc(-c2ccc(C(F)(F)F)cc2)o1` : reported composite z-score = ?
Key: -1.03

Exercise: For `CC(C)(C)OC(=O)CC[C@]1(C(=O)O)N=C(c2ccc(OCCCO)cc2)O[C@H]1c1ccccc1CN=[N+]=[N-]` then?
Key: 0.0075

Exercise: Please give the result for `COc1ccc([Si](C)(C)[C@@H]2[C@@H](CCO)O[C@]3(C(=O)N(Cc4cccc(N5C(=O)c6cccc7cccc5c67)c4)c4ccccc43)[C@H]2C)cc1` too.
Key: 0.262
